# Tested on: GST-tagged Cn
# protocol.details: PEPperPRINT peptide microarray binding assay with GST-tagged Cn
# condition: GST-tagged Cn, mean over the chip locations
Assign Chip Fluorescence (mean) to each entry below.
// response body must contain only the number

Documented Chip Fluorescence (mean) of HISSSPDITATPTQHR [SeqRIPOR2_Calypte_anna] : -0.7974

Documented Chip Fluorescence (mean) of GGPGTPGRQGQHLAPS [SeqRBMlowT_7794] : -1.021

Documented Chip Fluorescence (mean) of RVLECPSIRITSISPT [SeqNFATC4_Homo_sapiens] : -0.8782

Documented Chip Fluorescence (mean) of STSSLPTFSFSSPASS [SeqRBMlowT_1605] : -0.9005

Documented Chip Fluorescence (mean) of LNLKIPEVRLNIISAL [SeqRBMlowT_1835] : -0.5761

Documented Chip Fluorescence (mean) of TFWTNPQFKVKLTDPD [SeqRBMlowT_2929] : -2.672

Documented Chip Fluorescence (mean) of NWPETPSIVEQPPSSS [SeqRBM_881] : -1.045

Documented Chip Fluorescence (mean) of AHVSVPVIVVSPGETI [SeqRBM_3486] : -0.4942

Documented Chip Fluorescence (mean) of GVQANPQFTIKAMMTN [SeqRBM_9281] : -2.366

Documented Chip Fluorescence (mean) of YPPGTPTKQGQQMAPS [SeqRTS1_Aspergillus_carbonarius] : -1.955

Documented Chip Fluorescence (mean) of SHKASPPTLNESPVTH [SeqRBM_2083] : -1.173

Documented Chip Fluorescence (mean) of KSKLIPKLSIQSPVHH [SeqRBMlowT_830] : -1.425

###

# Test system: GST-tagged Cn
# protocol.details: PEPperPRINT peptide microarray binding assay with GST-tagged Cn
# condition: max over the spots listed under Location on chip
Assign Chip Fluorescence (max) to each entry below.

Documented Chip Fluorescence (max) of GSETQPGIVVHVCEDD [SeqRBMlowT_1216] : 2.678

Documented Chip Fluorescence (max) of TSPDQPCIDVHQSESE [SeqRBM_4309] : 2.7949

Documented Chip Fluorescence (max) of TFWTNPQFRIKLEDPD [SeqRBMlowT_91] : 2.652

Documented Chip Fluorescence (max) of RTYINPFMQFTDGGRF [SeqRBMlowT_552] : 2.5867

###

# System: GST-tagged Cn
# protocol.details: PEPperPRINT peptide microarray binding assay with GST-tagged Cn
# condition: mean over the spots listed under Location on chip
recorded.endpoint: Chip Fluorescence (mean)
// response body must contain only the number

Documented Chip Fluorescence (mean) of LKDESPEVRLNIISSL [SeqRBMlowT_1855] : 1.095

Documented Chip Fluorescence (mean) of RNPGTALLELRGHSAS [SeqRBMlowT_6200] : 1.087

Documented Chip Fluorescence (mean) of TFWTNPQYRIKLEEAD [SeqRBMlowT_241] : 0.9242

Documented Chip Fluorescence (mean) of TFWTNPQYKITLEEDD [SeqRBMlowT_9018] : -0.09775

Documented Chip Fluorescence (mean) of TFWTNPQFRITVTDPD [SeqRBMlowT_669] : 1.6891

Documented Chip Fluorescence (mean) of TFWTNPQFVITLEEVD [SeqRBMlowT_928] : 0.8732

Documented Chip Fluorescence (mean) of RQGAGPILVLEGHWDA [SeqRBM_4400] : -1.788

Documented Chip Fluorescence (mean) of KAYINPSMVFIEGGRR [SeqRBM_7863] : 0.9132

Documented Chip Fluorescence (mean) of TFWTNPQYRITLEEED [SeqRBMlowT_1109] : 0.265

Documented Chip Fluorescence (mean) of PAGAGVGIVITVTEAE [SeqRBMlowT_166] : 1.082

Documented Chip Fluorescence (mean) of TFWMNPQFRITLDDPD [SeqRBMlowT_69] : 0.639

Documented Chip Fluorescence (mean) of TFWTNPQYTITLEEVD [SeqRBMlowT_678] : 0.5944

Documented Chip Fluorescence (mean) of KAYMCSFMRFIEGGRR [SeqRBMlowT_3379] : -0.3215
